Source listed as ChEMBL document CHEMBL1155799.

Biological target: D(4) dopamine receptor (Homo sapiens)
Sequence (P21917 whole entry): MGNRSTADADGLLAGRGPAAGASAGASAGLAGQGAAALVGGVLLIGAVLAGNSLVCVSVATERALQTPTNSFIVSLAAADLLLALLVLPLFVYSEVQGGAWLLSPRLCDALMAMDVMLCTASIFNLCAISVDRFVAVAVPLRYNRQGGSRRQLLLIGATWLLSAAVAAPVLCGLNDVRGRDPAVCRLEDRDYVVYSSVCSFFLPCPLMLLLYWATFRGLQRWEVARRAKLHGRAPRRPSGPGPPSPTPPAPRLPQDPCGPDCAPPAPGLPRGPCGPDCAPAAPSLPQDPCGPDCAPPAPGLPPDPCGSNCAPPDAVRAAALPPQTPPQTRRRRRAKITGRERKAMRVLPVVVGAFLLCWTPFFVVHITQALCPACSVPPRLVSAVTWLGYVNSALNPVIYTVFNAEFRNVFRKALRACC
Exercise: for every item that follows, state its recorded pKi.
Please treat pKi as minus the base-10 logarithm of the molar concentration.

Qu. Any idea what pKi was measured for O=C(CCCN1CC2CC1CN2c1ccc(Cl)cc1)c1ccc(F)cc1 (configuration not stated) ?
Ans. 6.28

Qu. Any idea what pKi was measured for O=C(CCCN1CC2CCC(C1)N2c1ccccc1)c1ccc(F)cc1 ?
Ans. 5.68
